# ASSAY NAME: clinical
# TEST CONTEXT: human, in vivo, po, 801 mg, AUC0-∞, Mean (SD)
MEASURED QUANTITY: AUC(0-inf) (µg·h/mL)

compound="Cc1ccc(=O)n(-c2ccccc2)c1 [Pirfenidone, 5-methyl-1-phenyl-2-(1H)-pyridone]" readout_units=µg·h/mL value_reported=51.9

###

# ASSAY NAME: clinical
# TEST CONTEXT: human, in vivo, po, 801 mg, Tmax, Median
MEASURED QUANTITY: Tmax (h)

smiles_str=Cc1ccc(=O)n(-c2ccccc2)c1 measured_quantity=Tmax value_reported=2

###

# ASSAY NAME: clinical
# TEST CONTEXT: human, in vivo, po, Tmax, Geometric Mean
MEASURED QUANTITY: Tmax

smiles_str=Cc1ccc(=O)n(-c2ccccc2)c1 value_reported="2.3 h"
